- Tested on: Mycoplasma gallisepticum
- assay-protocol: conventional broth-dilution microtiter test, MIC
- Format: cell-based
List of MIC (minimal inhibitory concentration) values.
Please give only the number in your answer, with no unit.

| compound | MIC (minimal inhibitory concentration) |
| --- | --- |
| CCC(=O)OCC1C=C(C)C=CC(=O)C(C)CC(CC=O)C(OC2OC(C)C(OC3CC(C)(O)C(OC(=O)CC)C(C)O3)C(N(C)C)C2OC(C)=O)C(C)C(O)CC(=O)OC1CC (stereo not drawn) | 0.097 |
| CCC(=O)OC1CC(=O)OC(CC)C(C)C=C(C)C=CC(=O)C(C)CC(CC=O)C(OC2OC(C)C(OC3CC(C)(O)C(OC(=O)CC)C(C)O3)C(N(C)C)C2OC(C)=O)C1C (stereo not drawn) | 0.39 |

Form field: reported MIC (minimal inhibitory concentration) of CCC1OC(=O)CC(O)C(C)C(OC2OC(C)C(OC3CC(C)(O)C(OC(=O)Cc4ccccc4)C(C)O3)C(N(C)C)C2OC(C)=O)C(CC=O)CC(C)C(=O)C=CC(C)=CC1COC(=O)Cc1ccccc1 (stereo not drawn)
1.56

* * *

- Test system: Haemophilus influenzae Holt
- assay-protocol: standard agar-dilution assay, MIC
- Assay type: cell-based
- measurement-conditions: ampicillin sensitive strain
readout-label: MIC (minimal inhibitory concentration)

| compound | MIC (minimal inhibitory concentration) |
| --- | --- |
| CCC1OC(=O)CC(O)C(C)C(OC2OC(C)C(OC3CC(C)(O)C(OC(C)=O)C(C)O3)C(N(C)C)C2OC(C)=O)C(CC=O)CC(C)C(=O)C=CC(C)=CC1COC(C)=O (centres unmarked) | 16 |

Consider the compound CCC(=O)OC1CC(=O)OC(CC)C(C)C=C(C)C=CC(=O)C(C)CC(CC=O)C(OC2OC(C)C(OC3CC(C)(O)C(OC(=O)CC)C(C)O3)C(N(C)C)C2O)C1C (centres unmarked) and give its measured MIC (minimal inhibitory concentration).
32

* * *

This listing pairs compounds with measured MIC (minimal inhibitory concentration).
- Test system: Pasteurella multocida 60A
- assay-protocol: conventional broth-dilution microtiter test, MIC
- Assay type: cell-based
- measurement-conditions: avian isolate
Output spec: single numeric token, no unit.

// below: answered compounds
| compound | endpoint-result |
| --- | --- |
| CCC(=O)OC1CC(=O)OC(CC)C(COC(=O)C(Cl)(Cl)Cl)C=C(C)C=CC(=O)C(C)CC(CC=O)C(OC2OC(C)C(OC3CC(C)(O)C(OC(=O)CC)C(C)O3)C(N(C)C)C2OC(C)=O)C1C (stereo not drawn) | 50 |
| CCC(=O)OCC1C=C(C)C=CC(=O)C(C)CC(CC=O)C(OC2OC(C)C(OC3CC(C)(O)C(OC(=O)CC)C(C)O3)C(N(C)C)C2O)C(C)C(OC(=O)CC)CC(=O)OC1CC (stereo not drawn) | 50 |

Look at this compound and give its reported MIC (minimal inhibitory concentration). CCC1OC(=O)CC(O)C(C)C(OC2OC(C)C(OC3CC(C)(O)C(OC(C)=O)C(C)O3)C(N(C)C)C2OC(C)=O)C(CC=O)CC(C)C(=O)C=CC(C)=CC1COC(C)=O (stereo not drawn)
25

Then what about the compound CCC1OC(=O)CC(O)C(C)C(OC2OC(C)C(OC3CC(C)(O)C(OC(C)=O)C(C)O3)C(N(C)C)C2O)C(CC=O)CC(C)C(=O)C=CC(C)=CC1COC(C)=O (stereo not drawn) ?
12.5

Would you mind doing CCC(=O)OCC1C=C(C)C=CC(=O)C(C)CC(CC=O)C(OC2OC(C)C(OC3CC(C)(O)C(OC(=O)CC)C(C)O3)C(N(C)C)C2OC(C)=O)C(C)C(O)CC(=O)OC1CC (stereo not drawn) as well?
12.5

Same read-out for CCC(=O)OC1C(C)OC(OC2C(C)OC(OC3C(CC=O)CC(C)C(=O)C=CC(C)=CC(COC(=O)C(Cl)(Cl)Cl)C(CC)OC(=O)CC(O)C3C)C(OC(C)=O)C2N(C)C)CC1(C)O (stereo not drawn) ?
25
